Biological target: Sodium-dependent serotonin transporter (Rattus norvegicus)
Experiment: Specific binding of [18F]AFA in rat hypothalamus after nisoxetine treatment; n=3
Assay type: functional, tissue-based
Settings: tested as the 18F-labelled form
observed-property: Specific binding (%ID/g)
Give the quantity in %ID/g, number only.

// solved cases for Specific binding follow
>>> df
                    smiles_record  unit_label  observed_measurement
0  CN(C)Cc1ccccc1Sc1ccc(CCCF)cc1N       %ID/g                  0.84
1    CN(C)Cc1ccccc1Sc1ccc(CF)cc1N       %ID/g                  5.24
2     CN(C)Cc1ccccc1Sc1ccc(F)cc1N       %ID/g                  3.82

With Sodium-dependent serotonin transporter (Rattus norvegicus) as the test system, CN(C)Cc1ccccc1Sc1ccc(CCF)cc1N showed Specific binding of 4

====

Species on record: Rattus norvegicus
Assay: Regional uptake of [18F]AFA in hippocampus of rat pretreated with compound citalopram; n=3
Assay type: functional, organism-based
Conditions: tested as the 18F-labelled form
Parameter: Uptake. Scope: all listed entries.
Give the quantity in %ID/g, number only.

>>> print(df.to_string())
                    smiles_record  observed_measurement
0     CN(C)Cc1ccccc1Sc1ccc(F)cc1N                  0.11
1  CN(C)Cc1ccccc1Sc1ccc(CCCF)cc1N                  0.11

// recorded Uptake for CN(C)Cc1ccccc1Sc1ccc(CCF)cc1N : 0.09

// recorded Uptake for CN(C)Cc1ccccc1Sc1ccc(CF)cc1N : 0.13

====

Molecular target: UniProt:P31652
Sequence (P31652 whole entry): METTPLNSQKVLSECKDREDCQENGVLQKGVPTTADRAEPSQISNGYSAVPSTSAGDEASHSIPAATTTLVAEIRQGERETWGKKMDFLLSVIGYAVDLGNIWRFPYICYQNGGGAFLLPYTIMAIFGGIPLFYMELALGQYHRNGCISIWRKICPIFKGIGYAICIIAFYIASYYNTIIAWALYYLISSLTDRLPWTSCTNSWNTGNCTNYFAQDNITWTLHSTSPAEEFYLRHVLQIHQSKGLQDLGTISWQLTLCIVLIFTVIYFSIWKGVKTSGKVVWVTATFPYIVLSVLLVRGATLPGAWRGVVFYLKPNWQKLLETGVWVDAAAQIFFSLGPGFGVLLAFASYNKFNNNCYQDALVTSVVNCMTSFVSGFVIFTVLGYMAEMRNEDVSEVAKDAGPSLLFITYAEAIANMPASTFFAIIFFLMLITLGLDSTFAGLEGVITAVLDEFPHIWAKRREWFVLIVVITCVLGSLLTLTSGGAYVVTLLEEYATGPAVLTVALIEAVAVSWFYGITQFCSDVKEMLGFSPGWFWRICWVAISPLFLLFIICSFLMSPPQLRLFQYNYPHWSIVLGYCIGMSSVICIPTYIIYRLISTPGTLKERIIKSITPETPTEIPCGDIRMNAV
Test: Specific binding of [18F]-AFA in rat striatum after nisoxetine treatment; n=3
Format: functional, tissue-based
Conditions: tested as the 18F-labelled form
Parameter: Specific binding. Scope: all listed entries.
Give the quantity in %ID/g, number only.

With UniProt:P31652 as the test system, CN(C)Cc1ccccc1Sc1ccc(CCF)cc1N showed Specific binding of 2.1

With UniProt:P31652 as the test system, CN(C)Cc1ccccc1Sc1ccc(F)cc1N showed Specific binding of 2.45

With UniProt:P31652 as the test system, CN(C)Cc1ccccc1Sc1ccc(CCCF)cc1N showed Specific binding of 0.58

With UniProt:P31652 as the test system, CN(C)Cc1ccccc1Sc1ccc(CF)cc1N showed Specific binding of 3.59

====

Organism: Rattus norvegicus
Assay: Regional uptake of [18F]AFA in blood of rat pretreated with compound nisoxetine; n=3
Format: functional, organism-based
Conditions: tested as the 18F-labelled form
Parameter: Uptake. Scope: all listed entries.
Give the quantity in %ID/g, number only.

>>> df
                    smiles_record  observed_property  observed_measurement
0  CN(C)Cc1ccccc1Sc1ccc(CCCF)cc1N             Uptake                  0.08
1   CN(C)Cc1ccccc1Sc1ccc(CCF)cc1N             Uptake                  0.06
2    CN(C)Cc1ccccc1Sc1ccc(CF)cc1N             Uptake                  0.11

Now consider a different molecule.
// recorded Uptake for CN(C)Cc1ccccc1Sc1ccc(F)cc1N : 0.1

====

Species on record: Rattus norvegicus
Experiment: Regional uptake of [18F]AFA in frontal cortex of rat pretreated with compound citalopram; n=3
Assay type: functional, organism-based
Conditions: tested as the 18F-labelled form
Parameter: Uptake. Scope: all listed entries.
Give the quantity in %ID/g, number only.

// solved cases for Uptake follow
>>> print(df.to_string())
                    smiles_record  observed_property  unit_label  observed_measurement
0     CN(C)Cc1ccccc1Sc1ccc(F)cc1N             Uptake       %ID/g                  0.11
1  CN(C)Cc1ccccc1Sc1ccc(CCCF)cc1N             Uptake       %ID/g                  0.16
2   CN(C)Cc1ccccc1Sc1ccc(CCF)cc1N             Uptake       %ID/g                  0.08

Now consider a different compound.
// recorded Uptake for CN(C)Cc1ccccc1Sc1ccc(CF)cc1N : 0.11
